tested on: MDA-MB-231; assay: Antiproliferative activity against human MDA-MB-231 cells measured after 48 hrs by MTT assay; format: functional, cell-based; conditions: MDA-MB-231, 48 h
IC50 reference
Value expressed in µM; do not type the unit.

Example cases with answers are listed next.
| mol | IC50 / µM |
| --- | --- |
| CCCCCNc1nc(Cl)nc2c1ncn2CCCC(=O)NCc1ccc(C(=O)Nc2ccccc2N)cc1 | 9.68 |
| O=C(CCCCCCC(=O)Nc1ccccc1)NO | 1.54 |
| CCN(CC)c1nc(Cl)nc2c1ncn2CCCC(=O)NCc1ccc(C(=O)Nc2ccccc2N)cc1 | 11.1 |
| CNc1nc(Cl)nc2c1ncn2Cc1ccc(C(=O)Nc2ccccc2N)cc1 | 0.24 |
| CCCCNc1nc(Cl)nc2c1ncn2Cc1ccc(C(=O)Nc2ccccc2N)cc1 | 0.38 |

Query compound follows.
Return reported IC50. Input compound: "CCCNc1nc(Cl)nc2c1ncn2Cc1ccc(C(=O)Nc2ccccc2N)cc1"
0.05

###

experiment: Intrinsic clearance in human liver microsomes assessed per mg protein at 13.8 uM by HPLC analysis; type: ADME, Microsome
observed property: CLint (µL/min/mg)
Numbers only; they are read as µL/min/mg.

Identify measured CLint corresponding to "CCCCNc1nc(Cl)nc2c1ncn2Cc1ccc(C(=O)Nc2ccccc2N)cc1"
2.5

###

molecular target: Histone deacetylase 1 (Homo sapiens, UniProt Q13547); experiment: Inhibition of recombinant human full-length C-terminal Flag-His6-tagged HDAC1 (1 to 482 residues) expressed in Sf9 insect cells using fluorogenic HDAC substrate measured after 30 mins by fluorimetry
Sequence (Q13547 whole entry, the tested form may be a part): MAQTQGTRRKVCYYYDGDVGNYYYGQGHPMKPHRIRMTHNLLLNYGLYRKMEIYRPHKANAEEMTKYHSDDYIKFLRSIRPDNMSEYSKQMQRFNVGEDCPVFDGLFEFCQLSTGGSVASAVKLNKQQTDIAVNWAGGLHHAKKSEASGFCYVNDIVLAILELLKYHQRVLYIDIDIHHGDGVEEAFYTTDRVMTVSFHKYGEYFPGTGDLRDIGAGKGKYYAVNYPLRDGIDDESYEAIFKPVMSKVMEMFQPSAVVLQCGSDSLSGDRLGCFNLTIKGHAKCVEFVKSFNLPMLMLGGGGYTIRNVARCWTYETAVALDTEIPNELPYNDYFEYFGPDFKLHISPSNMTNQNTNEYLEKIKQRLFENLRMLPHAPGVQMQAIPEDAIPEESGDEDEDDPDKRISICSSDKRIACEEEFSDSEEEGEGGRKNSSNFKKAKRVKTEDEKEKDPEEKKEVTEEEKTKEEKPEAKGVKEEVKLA
// IC50 lookup, one value per entry
Entry rule: numbers only, all in nM.

Provide IC50, recorded with Histone deacetylase 1 (Homo sapiens, UniProt Q13547), of "CNc1nc(Cl)nc2c1ncn2Cc1ccc(C(=O)Nc2ccccc2N)cc1"
77.4

Consider the molecule "CCCCNc1nc(Cl)nc2c1ncn2Cc1ccc(C(=O)Nc2ccccc2N)cc1" tested on Histone deacetylase 1 (Homo sapiens, UniProt Q13547); state its IC50.
55.1

Provide IC50, system Histone deacetylase 1 (Homo sapiens, UniProt Q13547), entry "CCNc1nc(Cl)nc2c1ncn2Cc1ccc(C(=O)Nc2ccccc2N)cc1"
93.5

Supply IC50 measured with Histone deacetylase 1 (Homo sapiens, UniProt Q13547) for "CCCNc1nc(Cl)nc2c1ncn2Cc1ccc(C(=O)Nc2ccccc2N)cc1" .
309

###

test system: K562; assay: cells; type: functional, cell-based; conditions: Homo sapiens, K562, 48 h
# label = yes if IC50 < 1 µM else no

Use these answered entries as a reference point.
| mol | cat |
| --- | --- |
| CCCCNc1nc(Cl)nc2c1ncn2Cc1ccc(C(=O)Nc2ccccc2N)cc1 | yes |
| CNc1nc(Cl)nc2c1ncn2Cc1ccc(C(=O)Nc2ccccc2N)cc1 | yes |
| CCCNc1nc(Cl)nc2c1ncn2Cc1ccc(C(=O)Nc2ccccc2N)cc1 | no |
| Nc1ccccc1NC(=O)c1ccc(CNC(=O)OCc2cccnc2)cc1 | no |

Now consider a different compound.
Please check: IC50 for "CCNc1nc(Cl)nc2c1ncn2Cc1ccc(C(=O)Nc2ccccc2N)cc1" , strictly under 1 µM or not?
no

###

assay: Half life in human liver microsomes at 13.8 uM by HPLC analysis; assay type: ADME, Microsome
observed property: half-life at 13.8 µM (h)
Write the value in h as a bare number.

Tell me measured half-life at 13.8 µM for "CCCCNc1nc(Cl)nc2c1ncn2Cc1ccc(C(=O)Nc2ccccc2N)cc1" please.
4.62

###

target: Histone deacetylase 3/Nuclear receptor corepressor 2 (HDAC3/NCoR2) (Homo sapiens, UniProt O15379); test: biochemical
Sequence (O15379 whole entry): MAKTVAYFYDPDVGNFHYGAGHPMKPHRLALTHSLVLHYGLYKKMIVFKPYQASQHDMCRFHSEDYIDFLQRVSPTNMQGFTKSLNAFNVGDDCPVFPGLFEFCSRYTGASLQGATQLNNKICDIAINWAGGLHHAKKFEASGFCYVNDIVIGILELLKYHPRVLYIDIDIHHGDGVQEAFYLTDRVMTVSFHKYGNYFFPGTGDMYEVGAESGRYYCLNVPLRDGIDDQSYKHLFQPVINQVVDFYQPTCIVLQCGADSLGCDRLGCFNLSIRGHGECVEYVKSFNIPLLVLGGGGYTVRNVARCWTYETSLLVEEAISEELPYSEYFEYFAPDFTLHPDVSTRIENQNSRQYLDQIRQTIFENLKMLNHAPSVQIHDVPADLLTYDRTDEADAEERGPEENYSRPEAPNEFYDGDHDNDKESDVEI
Sequence (Q9Y618 whole entry, further chain): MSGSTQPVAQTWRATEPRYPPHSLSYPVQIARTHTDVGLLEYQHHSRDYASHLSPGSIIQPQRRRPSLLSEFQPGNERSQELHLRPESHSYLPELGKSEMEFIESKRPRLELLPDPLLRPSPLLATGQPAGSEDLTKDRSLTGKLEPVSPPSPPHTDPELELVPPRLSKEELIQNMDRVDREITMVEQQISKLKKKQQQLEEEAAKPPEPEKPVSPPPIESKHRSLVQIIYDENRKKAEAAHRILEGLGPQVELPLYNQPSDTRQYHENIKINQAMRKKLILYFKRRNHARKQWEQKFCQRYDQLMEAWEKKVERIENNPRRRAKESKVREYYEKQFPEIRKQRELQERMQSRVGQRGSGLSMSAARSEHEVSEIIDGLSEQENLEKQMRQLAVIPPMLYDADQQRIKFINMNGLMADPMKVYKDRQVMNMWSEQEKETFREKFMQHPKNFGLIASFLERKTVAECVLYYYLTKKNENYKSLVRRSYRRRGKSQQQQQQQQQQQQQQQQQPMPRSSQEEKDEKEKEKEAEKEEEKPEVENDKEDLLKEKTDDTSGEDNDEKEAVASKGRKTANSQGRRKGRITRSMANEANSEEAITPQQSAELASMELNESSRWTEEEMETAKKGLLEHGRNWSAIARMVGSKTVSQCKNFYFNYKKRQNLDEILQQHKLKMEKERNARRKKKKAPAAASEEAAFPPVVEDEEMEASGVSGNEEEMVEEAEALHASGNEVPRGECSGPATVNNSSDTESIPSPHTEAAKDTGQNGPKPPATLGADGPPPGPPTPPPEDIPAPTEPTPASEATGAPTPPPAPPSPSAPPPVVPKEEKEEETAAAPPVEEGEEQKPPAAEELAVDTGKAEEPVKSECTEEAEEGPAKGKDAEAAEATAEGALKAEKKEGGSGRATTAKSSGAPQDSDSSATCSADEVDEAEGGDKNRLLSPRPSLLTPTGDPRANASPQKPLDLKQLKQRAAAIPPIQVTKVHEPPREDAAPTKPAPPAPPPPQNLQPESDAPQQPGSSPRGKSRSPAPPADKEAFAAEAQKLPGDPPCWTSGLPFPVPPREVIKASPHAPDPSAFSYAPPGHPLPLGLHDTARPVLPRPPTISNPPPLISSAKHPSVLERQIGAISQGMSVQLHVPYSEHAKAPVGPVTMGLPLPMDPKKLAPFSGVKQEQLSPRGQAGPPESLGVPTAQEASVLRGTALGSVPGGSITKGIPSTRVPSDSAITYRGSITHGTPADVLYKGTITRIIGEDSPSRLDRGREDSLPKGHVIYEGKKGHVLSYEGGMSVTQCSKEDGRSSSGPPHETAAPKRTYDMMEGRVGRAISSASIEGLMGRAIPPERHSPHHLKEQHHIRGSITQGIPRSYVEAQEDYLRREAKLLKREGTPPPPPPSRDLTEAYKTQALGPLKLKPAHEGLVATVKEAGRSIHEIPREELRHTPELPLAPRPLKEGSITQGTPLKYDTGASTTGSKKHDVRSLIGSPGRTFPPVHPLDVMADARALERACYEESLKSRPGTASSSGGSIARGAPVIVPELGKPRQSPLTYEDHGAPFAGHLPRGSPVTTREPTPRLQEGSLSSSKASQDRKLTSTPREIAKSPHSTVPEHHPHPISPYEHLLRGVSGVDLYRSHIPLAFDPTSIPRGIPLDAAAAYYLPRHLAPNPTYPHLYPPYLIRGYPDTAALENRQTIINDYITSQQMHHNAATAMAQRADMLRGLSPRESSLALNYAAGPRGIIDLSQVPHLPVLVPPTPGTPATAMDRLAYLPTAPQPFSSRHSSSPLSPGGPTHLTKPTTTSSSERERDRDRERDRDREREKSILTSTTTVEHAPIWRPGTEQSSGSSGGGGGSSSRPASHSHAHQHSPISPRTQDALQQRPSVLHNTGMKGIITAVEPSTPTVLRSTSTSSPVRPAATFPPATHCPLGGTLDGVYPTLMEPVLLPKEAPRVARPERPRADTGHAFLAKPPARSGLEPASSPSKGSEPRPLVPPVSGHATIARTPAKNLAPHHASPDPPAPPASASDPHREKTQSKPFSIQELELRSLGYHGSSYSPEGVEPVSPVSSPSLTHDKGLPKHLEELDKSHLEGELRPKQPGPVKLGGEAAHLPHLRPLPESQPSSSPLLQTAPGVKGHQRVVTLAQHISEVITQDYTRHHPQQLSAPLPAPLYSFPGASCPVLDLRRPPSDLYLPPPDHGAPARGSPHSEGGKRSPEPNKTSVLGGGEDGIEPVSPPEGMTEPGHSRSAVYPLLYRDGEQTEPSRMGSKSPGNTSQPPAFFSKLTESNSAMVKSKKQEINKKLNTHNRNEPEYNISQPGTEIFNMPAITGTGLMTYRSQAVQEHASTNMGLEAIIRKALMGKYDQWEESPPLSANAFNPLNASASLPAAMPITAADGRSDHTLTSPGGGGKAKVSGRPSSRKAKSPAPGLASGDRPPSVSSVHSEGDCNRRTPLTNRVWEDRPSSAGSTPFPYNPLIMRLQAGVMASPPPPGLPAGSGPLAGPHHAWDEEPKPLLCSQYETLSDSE
Reported IC50 values follow for various compounds
Provide only the numeric value, understood in nM.

Look over these answered cases.
| mol | IC50 (nM) |
| --- | --- |
| CCCNc1nc(Cl)nc2c1ncn2Cc1ccc(C(=O)Nc2ccccc2N)cc1 | 1360 |
| CNc1nc(Cl)nc2c1ncn2Cc1ccc(C(=O)Nc2ccccc2N)cc1 | 1770 |
| CCCCNc1nc(Cl)nc2c1ncn2Cc1ccc(C(=O)Nc2ccccc2N)cc1 | 1240 |

Recall and state the measured IC50 for "CCNc1nc(Cl)nc2c1ncn2Cc1ccc(C(=O)Nc2ccccc2N)cc1" .
1070

###

target: Histone deacetylase 8 (Homo sapiens); test: Inhibition of human full-length C-terminal His-tagged HDAC8 expressed in baculovirus infected Sf9 insect cell using fluorogenic HDAC class 2a substrate measured after 30 mins by fluorimetry
Sequence (Q9BY41 whole entry): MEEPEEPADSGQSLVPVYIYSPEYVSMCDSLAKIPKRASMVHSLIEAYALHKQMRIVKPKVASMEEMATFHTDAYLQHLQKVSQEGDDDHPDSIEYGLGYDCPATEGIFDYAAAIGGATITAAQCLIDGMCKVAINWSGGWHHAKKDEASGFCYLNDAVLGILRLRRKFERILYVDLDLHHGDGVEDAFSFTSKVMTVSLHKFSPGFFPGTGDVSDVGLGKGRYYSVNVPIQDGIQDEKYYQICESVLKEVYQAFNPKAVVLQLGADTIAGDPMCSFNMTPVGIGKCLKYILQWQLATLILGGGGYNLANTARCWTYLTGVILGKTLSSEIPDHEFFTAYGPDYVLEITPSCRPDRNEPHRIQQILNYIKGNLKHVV
Reported pIC50 values are given for each entry in this list.
# pIC50 is unitless: minus log10 of the molar concentration; print number only

| mol | test value |
| --- | --- |
| CCCCNc1nc(Cl)nc2c1ncn2Cc1ccc(C(=O)Nc2ccccc2N)cc1 | 6.02 |

Consider the compound "CCCNc1nc(Cl)nc2c1ncn2Cc1ccc(C(=O)Nc2ccccc2N)cc1" . State its measured pIC50.
5.73

Could you please provide reported pIC50 for "CNc1nc(Cl)nc2c1ncn2Cc1ccc(C(=O)Nc2ccccc2N)cc1" ? Thanks!
5.99

###

compounds and their reported IC50
target: Histone deacetylase; format: cell-based, Homo sapiens; details: hela
Write it as a number; the unit µM goes unstated.

| mol | target under test | observed property | test value |
| --- | --- | --- | --- |
| CCCNc1nc(Cl)nc2c1ncn2CCCC(=O)NCc1ccc(C(=O)Nc2ccccc2N)cc1 | Histone deacetylase | IC50 | 1.26 |

Specify IC50 for "CCCCCNc1nc(Cl)nc2c1ncn2CCCC(=O)NCc1ccc(C(=O)Nc2ccccc2N)cc1" and stop.
3.43

Supply IC50 value. Item: "CCCCNc1nc(Cl)nc2c1ncn2Cc1ccc(C(=O)Nc2ccc(Br)cc2N)cc1"
2.04

Recall and state the measured IC50 for "CCCNc1nc(Cl)nc2c1ncn2Cc1ccc(C(=O)Nc2ccc(Br)cc2N)cc1" .
9.26

Tell me measured IC50 for "Cc1ccc(Nc2nc(Cl)nc3c2ncn3CCCCCCCC(=O)NO)cc1" please.
0.0153

Respond only with IC50 recorded for "CCNc1nc(Cl)nc2c1ncn2Cc1ccc(C(=O)Nc2ccc(F)cc2N)cc1"
5.77

Supply recorded IC50 for "CCCCCNc1nc(Cl)nc2c1ncn2Cc1ccc(C(=O)Nc2ccc(C)cc2N)cc1" here.
2.03

Supply reported IC50 belonging to this compound: "Cc1ccc(NC(=O)c2ccc(Cn3cnc4c(Cl)nc(Cl)nc43)cc2)c(N)c1"
25.04

###

target: Histone deacetylase; type: cell-based, Homo sapiens; conditions: hela
observed property: IC50 (µM)
Respond numerically; units are µM and should not be typed.

Some molecules with known IC50 results, for comparison:
| mol | target under test | IC50 [µM] |
| --- | --- | --- |
| CCN(CC)c1nc(Cl)nc2c1ncn2CCCC(=O)NCc1ccc(C(=O)Nc2ccccc2N)cc1 | Histone deacetylase | 3.91 |
| CCNc1nc(Cl)nc2c1ncn2Cc1ccc(C(=O)Nc2ccc(C)cc2N)cc1 | Histone deacetylase | 5.57 |

State its IC50 for this molecule: "CCN(CC)c1nc(Cl)nc2c1ncn2Cc1ccc(C(=O)Nc2ccc(Br)cc2N)cc1"
3.11

###

system: MDA-MB-231; assay: Antiproliferative activity against human MDA-MB-231 cells measured after 48 hrs by MTT assay; format: functional, cell-based; conditions: MDA-MB-231, 48 h
// assign condition met if IC50 falls strictly below 20 µM, else condition not met (ties count as condition not met)

Below, 4 compounds whose answers are already recorded.
| mol | cat |
| --- | --- |
| CCNc1nc(Cl)nc2c1ncn2CCCC(=O)NCc1ccc(C(=O)Nc2ccccc2N)cc1 | condition met |
| CCCNc1nc(Cl)nc2c1ncn2CCCC(=O)NCc1ccc(C(=O)Nc2ccccc2N)cc1 | condition not met |
| CNc1nc(Cl)nc2c1ncn2CCCC(=O)NCc1ccc(C(=O)Nc2ccccc2N)cc1 | condition met |
| CCCCNc1nc(Cl)nc2c1ncn2CCCC(=O)NCc1ccc(C(=O)Nc2ccccc2N)cc1 | condition met |

Please let me know if "CCNc1nc(Cl)nc2c1ncn2Cc1ccc(C(=O)Nc2ccccc2N)cc1" shows IC50 below 20 µM.
condition met

###

A collection of molecules and their measured IC50
target: Histone deacetylase; type: cell-based, Homo sapiens; conditions: hela
Please provide the amount together with its unit, number first.

A selection of reference data follows.
| mol | target under test | test value |
| --- | --- | --- |
| Nc1cc(F)ccc1NC(=O)c1ccc(Cn2cnc3c(Cl)nc(Cl)nc32)cc1 | Histone deacetylase | 2640 nM |
| CCCCNc1nc(Cl)nc2c1ncn2Cc1ccc(C(=O)Nc2ccccc2N)cc1 | Histone deacetylase | 27.5 nM |
| CNc1nc(Cl)nc2c1ncn2Cc1ccc(C(=O)Nc2ccccc2N)cc1 | Histone deacetylase | 1480 nM |
| CCCNc1nc(Cl)nc2c1ncn2Cc1ccc(C(=O)Nc2ccccc2N)cc1 | Histone deacetylase | 574 nM |
| CCCCCNc1nc(Cl)nc2c1ncn2Cc1ccc(C(=O)Nc2ccc(F)cc2N)cc1 | Histone deacetylase | 2860 nM |

As a next step, examine the molecule that follows.
Specify IC50 for "CNc1nc(Cl)nc2c1ncn2Cc1ccc(C(=O)Nc2ccc(Br)cc2N)cc1" and stop.
2160 nM

Reference source for all entries: ChEMBL document CHEMBL5154702
